test system: ATP; assay: switch fluorescence ratio, 500 uM ATP over buffer (Cy3 cluster intensity, sum of 5 cycles each) (fold (ratio)); higher = stronger signal-on switching upon ATP binding; sequences stand for … in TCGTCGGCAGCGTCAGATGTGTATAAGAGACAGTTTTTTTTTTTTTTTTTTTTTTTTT…TC; settings: aptamer strand: ATP DNA aptamer (quencher-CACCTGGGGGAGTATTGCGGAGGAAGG + anchor), 100 nM annealed; ATP concentration: 500 uM;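 further: ATP exposure 15 min at 22 °C before imaging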
Think of 1 as a floor: if switch fluorescence ratio stands on it or above, it is True; beneath it, False.

Here are 4 sequences together with their reported answers.
Task item: Is reported switch fluorescence ratio greater than or equal to 1 here: CATTCTGACG
Reply: True

Task item: // query: ACTACTGGTT
Reply: True

Task item: // query: TGCTTTCTTC
Reply: True

Task item: // query: GTGGTTGTGC
Reply: False

More entries:
Task item: Is reported switch fluorescence ratio greater than or equal to 1 here: GGTTTATATG
Reply: True

Task item: // query: TATGGATGGG
Reply: False

Task item: // query: TGCAACCTCA
Reply: True

Task item: // query: CGGGTGCTTT
Reply: True

Task item: // query: AGATGAGGAC
Reply: False

Task item: // query: ATAGGGCAGC
Reply: True

Task item: // query: TACTAGGCAA
Reply: True

Task item: // query: ATTTAAAACC
Reply: True

Task item: // query: GCCGCAGGGA
Reply: True

Task item: // query: TTGACATCCC
Reply: True

Task item: // query: TTTTCGTCCT
Reply: True

Task item: // query: GGGTAAGCCG
Reply: False

Task item: // query: TGGGATGCAA
Reply: True

Task item: // query: TGTGAGGCTA
Reply: True

Task item: // query: CGTGATATCT
Reply: True
